# TARGET ENTITY: human UDP‐GlcNAc 2‐epimerase (GNE) (Homo sapiens)
# Construct: The MNK subunit connects to the C‐terminus of the GNE subunit; made in house; host or cells: Escherichia coli BL21 (DE3)
# Sequence (Q9Y223 1-405 limits assumed): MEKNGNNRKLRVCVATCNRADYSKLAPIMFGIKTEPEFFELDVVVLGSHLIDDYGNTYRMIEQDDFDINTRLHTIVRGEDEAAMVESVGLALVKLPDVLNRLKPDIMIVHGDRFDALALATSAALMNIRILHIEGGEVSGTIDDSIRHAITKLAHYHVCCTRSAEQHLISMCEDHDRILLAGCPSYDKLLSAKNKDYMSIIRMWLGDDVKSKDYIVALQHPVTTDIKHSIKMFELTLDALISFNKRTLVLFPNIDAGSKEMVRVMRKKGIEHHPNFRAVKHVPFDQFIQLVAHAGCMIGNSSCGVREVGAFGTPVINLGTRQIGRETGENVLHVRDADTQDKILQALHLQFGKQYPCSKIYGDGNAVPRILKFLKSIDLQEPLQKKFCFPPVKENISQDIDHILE
# PROTOCOL NOTES: Mass photometry GNE assembly inhibition (inhibitor titration against 800 nM GNE)
# Assay type: biochemical
# MEASUREMENT PARAMETERS: 800 nM GNE, absence of UDP-GlcNAc; read-out: IC50^0(D), GNE dimer inhibition
ENDPOINT LABEL: IC50 (µM)

• COc1c(Br)cc(Br)cc1/C=C/c1cc(C(F)(F)F)[nH]c(=O)n1 [C15] = 21
